Every entry's value here was drawn from patent US8716242B2.

test: in vivo; design: species or system male CD-1 mice; conditions: male, CD-1, mouse, sc, 5 mg/kg
Bridge positions count the residues as written; N and C are the ends. Square brackets hold non-standard residues; d marks the D form. Peptide text beside a SMILES is read from it. * marks the point of attachment. Lauroyl = CCCCCCCCCCCC(=O)*; Dab = NCC[C@H](N)C(=O)O
PROPERTY: level at 1 h (ng/mL)
Give your result in ng/mL as a bare value.

Q: Write down level at 1 h measured for item CCCCCCCCCCCC(=O)NCCCC[C@@H]1NC(=O)[C@H](Cc2ccc(O)cc2)NC(=O)[C@@H]2CSSC[C@H](NC(=O)[C@H](C)NC(=O)[C@H](Cc3c[nH]cn3)NC(=O)[C@H](Cc3ccc(O)cc3)NC(=O)[C@@H]3CCCN3C(=O)[C@H]3CCCN3C(=O)[C@H](CCCCN)NC1=O)C(=O)N[C@@H](CCCNC(=N)N)C(=O)N[C@@H](C)C(=O)N1CCC[C@@H]1C(=O)N[C@@H](CCN)C(=O)N[C@@H](CCCNC(=N)N)C(=O)N[C@@H](Cc1ccc(O)cc1)C(=O)N2 [Ex. 17] (cyclo(YHACRA[dP][Dab]RYCYK(Lauroyl)K[dP]P); disulfide 4-11)
Result: 874
